Sourced from patent US20180037631A1

Reported kon by item:
- study-system: T1, IGF1R-Fc (extracellular domain of human IGF1R aa 1-932 fused to hinge and constant regions of human IgG1) (human, UniProt P08069 31-932)
- T1 construct: range 1-932; made in house by transient transfection, purified on Protein A; also called IGF-IR-Fc; not shown: hinge and constant regions of human IgG1
Report the value in M⁻¹ s⁻¹ with no unit label.

binder	u	kon
I1-GS10-E1, His-tagged, non-pegylated (designed binder) MGVSDVPRDLEVVAATPTSLLISWSARLKVARYYRITYGETGGNSPVQEFTVPKNVYTATISGLKPGVDYTITVYAVTRFRDYQPISINYRTEIDKGSGSGSGSGSGSGSGSGSGSVSDVPRDLEVVAATPTSLLISWVAGAEDYQYYRITYGETGGNSPVQEFTVPHDLVTATISGLKPGVDYTITVYAVTDMMHVEYTEHPISINYRTEIDKPSQHHHHHH	M⁻¹ s⁻¹	1.47e+06
I1-GS10-E3, non-pegylated (designed binder) VSDVPRDLEVVAATPTSLLISWSARLKVARYYRITYGETGGNSPVQEFTVPKNVYTATISGLKPGVDYTITVYAVTRFRDYQPISINYRTEIDKGSGSGSGSGSGSGSGSGSGSVSDVPRDLEVVAATPTSLLISWLPGKLRYQYYRITYGETGGNSPVQEFTVPHDLRTATISGLKPGVDYTITVYAVTNMMHVEYSEYPISINYRTEIDKPSQ	M⁻¹ s⁻¹	1.37e+06
E3-GS10-I1, non-pegylated (designed binder) VSDVPRDLEVVAATPTSLLISWLPGKLRYQYYRITYGETGGNSPVQEFTVPHDLRTATISGLKPGVDYTITVYAVTNMMHVEYSEYPISINYRTEIDKGSGSGSGSGSGSGSGSGSGSVSDVPRDLEVVAATPTSLLISWSARLKVARYYRITYGETGGNSPVQEFTVPKNVYTATISGLKPGVDYTITVYAVTRFRDYQPISINYRTEIDKPSQ	M⁻¹ s⁻¹	1.8e+06
I1 IGF-IR 10Fn3-based binder, His-tagged monomer (designed binder) MGVSDVPRDLEVVAATPTSLLISWSARLKVARYYRITYGETGGNSPVQEFTVPKNVYTATISGLKPGVDYTITVYAVTRFRDYQPISINYRTEIDKPSQHHHHHH	M⁻¹ s⁻¹	3.84e+06

Proceeding to the next binder to report its kon.
kon for E1-GS10-I1, His-tagged, non-pegylated (designed binder, bispecific EGFR/IGF-IR tandem of two 10Fn3 domains) MGVSDVPRDLEVVAATPTSLLISWVAGAEDYQYYRITYGETGGNSPVQEFTVPHDLVTATISGLKPGVDYTITVYAVTDMMHVEYTEHPISINYRTEIDKGSGSGSGSGSGSGSGSGSGSVSDVPRDLEVVAATPTSLLISWSARLKVARYYRITYGETGGNSPVQEFTVPKNVYTATISGLKPGVDYTITVYAVTRFRDYQPISINYRTEIDKPSQHHHHHH ?
513000
